measurement.target: Geranylgeranyl pyrophosphate synthase (Homo sapiens)
experiment.summary: Inhibition of GGDPS in human MG-63 cells assessed as lowest effective concentration required to show unmodified Rap1a band measured after 48 hrs by immunoblot analysis
Format: cell-based
measurement.type: LED (µM)

INSERT INTO measurements (compound, measurement_target, recorded_number) VALUES
  ('CC(C)=CCC/C(C)=C/CCn1cc(C2CC2(P(=O)([O-])[O-])P(=O)([O-])[O-])nn1.[Na+].[Na+].[Na+].[Na+] (stereo unspecified)', 'Geranylgeranyl pyrophosphate synthase (Homo sapiens)', 5),
  ('CC(C)=CCC/C(C)=C/CCn1cc(C2CC2(P(=O)(OCOC(=O)C(C)(C)C)OCOC(=O)C(C)(C)C)P(=O)(OCOC(=O)C(C)(C)C)OCOC(=O)C(C)(C)C)nn1 (stereo unspecified)', 'Geranylgeranyl pyrophosphate synthase (Homo sapiens)', 5),
  ('CC(C)=CCC/C(C)=C\CCn1cc(C2CC2(P(=O)([O-])[O-])P(=O)([O-])[O-])nn1.[Na+].[Na+].[Na+].[Na+] (stereo unspecified)', 'Geranylgeranyl pyrophosphate synthase (Homo sapiens)', 50),
  ('CC(C)=CCC/C(C)=C\CCn1cc(C=C(P(=O)(O)O)P(=O)(O)O)nn1', 'Geranylgeranyl pyrophosphate synthase (Homo sapiens)', 0.25),
  ('CC(C)=CCC/C(C)=C/CCn1cc(C=C(P(=O)(O)O)P(=O)(O)O)nn1', 'Geranylgeranyl pyrophosphate synthase (Homo sapiens)', 0.25),
  ('CC(C)=CCCC(C)=CCn1cc(C2OC2(P(=O)(O)O)P(=O)(O)O)nn1 (stereo unspecified)', 'Geranylgeranyl pyrophosphate synthase (Homo sapiens)', 5);

* * *

measurement.target: Geranylgeranyl pyrophosphate synthase (Homo sapiens)
experiment.summary: Inhibition of GGDPS in human RPMI-8226 cells assessed as lowest effective concentration required for increase in intracellular lambda chain level after 48 hrs by ELISA
Format: cell-based
measurement.type: LED (µM)

INSERT INTO measurements (compound, recorded_number) VALUES
  ('CC(C)=CCC/C(C)=C/CCn1cc(CC(C)(P(=O)(O)O)P(=O)(O)O)nn1', 0.02),
  ('CC(C)=CCC/C(C)=C/CCn1cc(C2CC2(P(=O)([O-])[O-])P(=O)([O-])[O-])nn1.[Na+].[Na+].[Na+].[Na+] (stereo not drawn)', 100),
  ('CC(C)=CCCC(C)CCCn1cc(CC(P(=O)(O)O)P(=O)(O)O)nn1 (stereo not drawn)', 10),
  ('CC(C)=CCC/C(C)=C/CCn1cc(CC(P(=O)(O)O)P(=O)(O)O)nn1', 0.09),
  ('CC(C)=CCC/C(C)=C/CCn1cc(C=C(P(=O)(O)O)P(=O)(O)O)nn1', 0.25),
  ('CC(C)=CCC/C(C)=C/CCn1cc(C2CC2(P(=O)(OCOC(=O)C(C)(C)C)OCOC(=O)C(C)(C)C)P(=O)(OCOC(=O)C(C)(C)C)OCOC(=O)C(C)(C)C)nn1 (stereo not drawn)', 5),
  ('CC(C)=CCCC(C)=CCn1cc(C2OC2(P(=O)(O)O)P(=O)(O)O)nn1 (stereo not drawn)', 5),
  ('CC(C)=CCCC(C)=CCn1cc(CC(P(=O)(O)O)P(=O)(O)O)nn1', 0.5);
